# credit: patent US10300155B2

assay: Biodistribution in male Balb/C mice; format: in vivo; conditions: 5 min post injection, tail vein; mean ± SD, n = 4
Overview of recorded Biodistribution: Blood for various molecules
Number only, in % ID/g; omit the unit.

Examples with answers:
COC(=O)c1ccc(/C=C/c2ccncc2)cc1 [[^11C]TZ-20-35]    5.21
COc1ccc(NC(=O)c2ccc(/C=C/c3ccncc3)cc2)cc1 [[^11C]TZ-20-83]    1.93
O=C(Nc1ccc(OCCC[18F])cc1)c1ccc(/C=C/c2ccncc2)cc1 [[^18F]TZ-23-92]    2.40

I have this molecule here, O=C(Nc1ccc(OCC[18F])cc1)c1ccc(/C=C/c2ccncc2)cc1 [[^18F]TZ-23-88] , and I need its recorded Biodistribution: Blood. 2.50

* * *

assay: Biodistribution in male Balb/C mice; format: in vivo; settings: 5 min post injection, tail vein; mean ± SD, n = 4
READOUT_NAME: Biodistribution: Heart (% ID/g)
Number only, in % ID/g; omit the unit.

Examples with answers:
O=C(Nc1ccc(OCCC[18F])cc1)c1ccc(/C=C/c2ccncc2)cc1 [[^18F]TZ-23-92]    2.93
COc1ccc(NC(=O)c2ccc(/C=C/c3ccncc3)cc2)cc1 [[^11C]TZ-20-83]    2.31
O=C(Nc1ccc(OCC[18F])cc1)c1ccc(/C=C/c2ccncc2)cc1 [[^18F]TZ-23-88]    4.82

I have this compound here, COC(=O)c1ccc(/C=C/c2ccncc2)cc1 [[^11C]TZ-20-35] , and I need its recorded Biodistribution: Heart. 4.72

* * *

molecular target: α-synuclein fibrils (Homo sapiens); construct: made in house; host or cells: E. coli BL21(DE3)RIL; assay: Thioflavin T competition assay (Example 130, Table 9), α-synuclein fibrils; type: binding; conditions: average; read-out: α-synuclein EC50 (avg)
Overview of recorded EC50 for various compounds
Number only, in nM; omit the unit.

Examples with answers:
COc1cc(/C=C/c2ccc3cc(O)ccc3n2)ccn1 [TZ-36-146]    332
COc1ccc2nc(/C=C/c3ccnc(Br)c3)ccc2c1 [TZ-36-36]    396
COc1cc(/C=C/c2ccc3cc(OC(C)C)ccc3n2)ccn1 [TZ-36-138]    128

I have this compound here, COc1cc(/C=C/c2ccc3cc(OCCF)ccc3n2)ccn1 [[^18F]TZ-36-148] , and I need its recorded EC50. 46.8

I have this compound here, COc1ccc2nc(C#Cc3ccnc(OC)c3)ccc2c1 [TZ-36-142] , and I need its recorded EC50. 609

I have this compound here, COCOc1ccc2nc(/C=C/c3ccnc(OC)c3)ccc2c1 [TZ-36-144] , and I need its recorded EC50. 110

I have this compound here, COc1ccc2nc(/C=C/c3ccoc3)ccc2c1 [TZ-36-54] , and I need its recorded EC50. 178

* * *

experiment: Biodistribution in male Balb/C mice; type: in vivo; conditions: 30 min post injection, tail vein; mean ± SD, n = 4
READOUT_NAME: Biodistribution: Heart

Examples with answers:
COC(=O)c1ccc(/C=C/c2ccncc2)cc1 [[^11C]TZ-20-35]    2.61 ± 0.54 % ID/g
O=C(Nc1ccc(OCCC[18F])cc1)c1ccc(/C=C/c2ccncc2)cc1 [[^18F]TZ-23-92]    2.19 ± 0.19 % ID/g
COc1ccc(NC(=O)c2ccc(/C=C/c3ccncc3)cc2)cc1 [[^11C]TZ-20-83]    1.79 ± 0.35 % ID/g

Then there is this molecule:
I have this molecule here, O=C(Nc1ccc(OCC[18F])cc1)c1ccc(/C=C/c2ccncc2)cc1 [[^18F]TZ-23-88] , and I need its recorded Biodistribution: Heart. 2.23 ± 0.06 % ID/g
